# STUDY_TARGET: human GPR119 (Homo sapiens)
# Sequence (Q8TDV5 1-335): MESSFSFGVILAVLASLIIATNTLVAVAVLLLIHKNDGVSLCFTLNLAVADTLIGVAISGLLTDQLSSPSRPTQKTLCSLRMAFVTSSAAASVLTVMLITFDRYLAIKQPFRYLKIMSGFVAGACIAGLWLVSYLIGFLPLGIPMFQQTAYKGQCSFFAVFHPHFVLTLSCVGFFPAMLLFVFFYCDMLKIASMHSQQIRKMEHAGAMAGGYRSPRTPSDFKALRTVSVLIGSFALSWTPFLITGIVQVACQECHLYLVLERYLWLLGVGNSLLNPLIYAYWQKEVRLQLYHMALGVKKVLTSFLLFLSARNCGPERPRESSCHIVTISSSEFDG
# TEST_SUMMARY: Measurement of GPR119 signaling using LANCE 384-well cAMP kit (LCMP assay)
# PROTOCOL_CONDITIONS: HEK293 cells stably transfected with human GPR119
RECORDED_METRIC: pEC50
// pEC50 here means minus log10 of the molar concentration (mol/L)

Challenge: Which pEC50 is reported for this compound? COCc1cnc(N2CCC([C@H]3C[C@@H]3CCOc3ccc(CC(=O)N(C)C)c(F)c3)CC2)nc1
Response given: 8.23

Challenge: Which pEC50 is reported for this compound? CS(=O)(=O)c1ccc(OCC[C@H]2C[C@@H]2C2CCN(c3ncc(Cl)cn3)CC2)cc1F
Response given: 8.39

Challenge: Which pEC50 is reported for this compound? CC(C)c1noc(N2CCC([C@@H]3C[C@H]3CCOc3ccc(CC(=O)N4CCC4)c(F)c3)CC2)n1
Response given: 8.66

Challenge: Which pEC50 is reported for this compound? COCc1noc(N2CCC([C@H]3C[C@@H]3CCOc3ccc(CC(=O)N4CCC4)c(F)c3)CC2)n1
Response given: 8.19

Challenge: Which pEC50 is reported for this compound? COCc1cnc(N2CCC([C@H]3C[C@@H]3COCc3ccc(S(C)(=O)=O)cc3)CC2)nc1
Response given: 7.85
